# ASSAY_PROCEDURE: Antiproliferative activity against human HCC827 cells expressing EGFR E746_A750 deletion mutant after 72 hrs by MTT assay
# RUN_CONDITIONS: HCC827, 72 h
MEASURED_ATTRIBUTE: IC50 (nM)
Provide only the numeric value, understood in nM.

Q. I am curious: what IC50 value has been reported for COc1cc(N2CCN(C)CC2)ccc1Nc1ncc(Cl)c(Oc2ccc(CCOc3no[n+]([O-])c3S(=O)(=O)c3ccccc3)cc2)n1 ?
A. 1930

Q. Any idea what its IC50 is? The compound is COc1cc(N2CCN(C)CC2)ccc1Nc1ncc(Cl)c(Oc2ccc(COc3no[n+]([O-])c3S(=O)(=O)c3ccccc3)cc2)n1
A. 863

Q. Recorded IC50 of COc1cc(N2CCN(C)CC2)ccc1Nc1ncc(Cl)c(Oc2ccc(CCCOc3no[n+]([O-])c3S(=O)(=O)c3ccccc3)cc2)n1 , please.
A. 4820

Q. Any idea what its IC50 is? The compound is COc1cc(N2CCC(O)CC2)ccc1Nc1ncc(Cl)c(Oc2ccc(COc3no[n+]([O-])c3S(=O)(=O)c3ccccc3)cc2)n1
A. 95

Q. Name the recorded IC50 for COc1cc(N2CCN(C)CC2)ccc1Nc1ncc(Cl)c(Oc2cccc(COc3no[n+]([O-])c3S(=O)(=O)c3ccccc3)c2)n1 .
A. 63

Q. Which IC50 is listed for COc1cc(N2CCC(O)CC2)ccc1Nc1ncc(Cl)c(Oc2cccc(COc3no[n+]([O-])c3S(=O)(=O)c3ccccc3)c2)n1 ?
A. 36

Q. // lookup IC50 for C=CC(=O)N1CCN(c2ccc(Nc3ncc(Cl)c(Oc4cccc(COc5no[n+]([O-])c5S(=O)(=O)c5ccccc5)c4)n3)c(OC)c2)CC1
A. 22

Q. What value of IC50 has been recorded for this entry: C=CC(=O)N1CCN(c2ccc(Nc3ncc(Cl)c(Oc4ccc(COc5no[n+]([O-])c5S(=O)(=O)c5ccccc5)cc4)n3)c(OC)c2)CC1
A. 4900

Just for reference, ChEMBL document CHEMBL2407010 is where these values come from.
